Cited source for all entries: ChEMBL document CHEMBL3407485

# Tested on: Mus musculus
# TEST PROTOCOL: Anticonvulsant activity in Kunming mouse assessed as protection against maximal electroshock-induced seizures measured as abolition of hind limb tonic extension spasm at 300 mg/kg, ip after 0.5 hrs
# Assay type: functional, organism-based
# Design: dose 300 mg/kg
# SETUP CONDITIONS: Hindlimb
Activity calls are given as the source filed them. No cut-off for these calls is given here.
Labels: active, inactive

[[record]]
molecule = "CC1(C)CC12NC(=O)N(CCNS(=O)(=O)c1ccc([N+](=O)[O-])cc1)C2=O (racemic)"
category = "active"

[[record]]
molecule = "CCOC(=O)C1(NC(=O)NCCNS(=O)(=O)c2cccc([N+](=O)[O-])c2)CC1(C)C (racemic)"
category = "inactive"

[[record]]
molecule = "CCOC(=O)C1(NC(=O)NCCNS(C)(=O)=O)CC1(C)C (racemic)"
category = "inactive"

[[record]]
molecule = "CCOC(=O)C1(NC(=O)NCCNS(=O)(=O)c2ccc([N+](=O)[O-])cc2)CC1(C)C (racemic)"
category = "inactive"


====

# Test system: Mus musculus
# TEST PROTOCOL: Neurotoxicity in Kunming mouse assessed as motor impairment at 300 mg/kg, ip after 4 hrs by standardized rotarod test
# Format: toxicity, organism-based
# Parameters: dose 300 mg/kg, route intraperitoneal
# SETUP CONDITIONS: in vivo
READOUT LABEL: Activity

[[record]]
compound = "CC1(C)CC12NC(=O)N(CCNS(C)(=O)=O)C2=O (racemic)"
readout_label = "Activity"
recorded_value = "Non-toxic"

[[record]]
compound = "CCCCS(=O)(=O)NCCNC(=O)NC1(C(=O)OCC)CC1(C)C (racemic)"
readout_label = "Activity"
recorded_value = "Non-toxic"

[[record]]
compound = "CCOC(=O)C1(NC(=O)NCCNS(=O)(=O)N(C)C)CC1(C)C (racemic)"
readout_label = "Activity"
recorded_value = "Non-toxic"

[[record]]
compound = "CCOC(=O)C1(NC(=O)NCCNS(C)(=O)=O)CC1(C)C (racemic)"
readout_label = "Activity"
recorded_value = "Non-toxic"

[[record]]
compound = "CC1(C)CC12NC(=O)N(CCNS(=O)(=O)c1ccc([N+](=O)[O-])cc1)C2=O (racemic)"
readout_label = "Activity"
recorded_value = "Non-toxic"


====

# Test system: Mus musculus
# TEST PROTOCOL: Anticonvulsant activity in Kunming mouse assessed as protection against maximal electroshock-induced seizures measured as abolition of hind limb tonic extension spasm at 300 mg/kg, ip after 0.5 hrs
# Format: functional, organism-based
# Parameters: dose 300 mg/kg
# SETUP CONDITIONS: Hindlimb
The source made the active and inactive calls. No cut-off for these calls is given here.
Labels: Y for active, N for inactive

[[record]]
compound = "CCC1(C)CC(=O)NC1=O (stereo unspecified) [ETHOSUXIMIDE]"
category = "N"

[[record]]
compound = "CCOC(=O)C1(NC(=O)NCCNS(=O)(=O)c2c(C(C)C)cc(C(C)C)cc2C(C)C)CC1(C)C (racemic)"
category = "Y"

[[record]]
compound = "CN(C)S(=O)(=O)NCCN1C(=O)NC2(CC2(C)C)C1=O (racemic)"
category = "N"

[[record]]
compound = "CC1(C)CC12NC(=O)N(CCNS(C)(=O)=O)C2=O (racemic)"
category = "N"

[[record]]
compound = "CCOC(=O)C1(NC(=O)NCCNS(=O)(=O)c2cccs2)CC1(C)C (racemic)"
category = "Y"

[[record]]
compound = "CCOC(=O)C1(NC(=O)NCCNS(=O)(=O)N(C)C)CC1(C)C (racemic)"
category = "N"


====

# System: Mus musculus
# TEST PROTOCOL: Neurotoxicity in Kunming mouse assessed as motor impairment at 300 mg/kg, ip after 0.5 hrs by standardized rotarod test
# Format: toxicity, organism-based
# Set-up: dose 300 mg/kg, route intraperitoneal
# SETUP CONDITIONS: in vivo
READOUT LABEL: Activity

[[record]]
molecule = "CCOC(=O)C1(NC(=O)NCCNS(=O)(=O)c2cccc([N+](=O)[O-])c2)CC1(C)C (racemic)"
recorded_value = "Non-toxic"

[[record]]
molecule = "Cc1ccc(S(=O)(=O)NCCN2C(=O)NC3(CC3(C)C)C2=O)cc1 (racemic)"
recorded_value = "Toxic"

[[record]]
molecule = "CCCCS(=O)(=O)NCCN1C(=O)NC2(CC2(C)C)C1=O (racemic)"
recorded_value = "Non-toxic"

[[record]]
molecule = "CCOC(=O)C1(NC(=O)NCCNS(=O)(=O)N(C)C)CC1(C)C (racemic)"
recorded_value = "Non-toxic"

[[record]]
molecule = "CCOC(=O)C1(NC(=O)NCCNS(=O)(=O)c2ccc(C)cc2)CC1(C)C (racemic)"
recorded_value = "Non-toxic"

[[record]]
molecule = "CCC1(C)CC(=O)NC1=O (centres undefined) [ETHOSUXIMIDE]"
recorded_value = "Non-toxic"

[[record]]
molecule = "CC1(C)CC12NC(=O)N(CCNS(=O)(=O)c1ccc([N+](=O)[O-])cc1)C2=O (racemic)"
recorded_value = "Non-toxic"

[[record]]
molecule = "CC(C)c1cc(C(C)C)c(S(=O)(=O)NCCN2C(=O)NC3(CC3(C)C)C2=O)c(C(C)C)c1 (racemic)"
recorded_value = "Non-toxic"

[[record]]
molecule = "CCOC(=O)C1(NC(=O)NCCNS(=O)(=O)c2cccs2)CC1(C)C (racemic)"
recorded_value = "Toxic"

